molecular target: full-length (FL) BRAF^WT (Homo sapiens, UniProt P15056); assay: ELISA kinase assay of purified full-length BRAF, probing phosphorylated MEK; format: biochemical
Sequence (P15056 whole entry): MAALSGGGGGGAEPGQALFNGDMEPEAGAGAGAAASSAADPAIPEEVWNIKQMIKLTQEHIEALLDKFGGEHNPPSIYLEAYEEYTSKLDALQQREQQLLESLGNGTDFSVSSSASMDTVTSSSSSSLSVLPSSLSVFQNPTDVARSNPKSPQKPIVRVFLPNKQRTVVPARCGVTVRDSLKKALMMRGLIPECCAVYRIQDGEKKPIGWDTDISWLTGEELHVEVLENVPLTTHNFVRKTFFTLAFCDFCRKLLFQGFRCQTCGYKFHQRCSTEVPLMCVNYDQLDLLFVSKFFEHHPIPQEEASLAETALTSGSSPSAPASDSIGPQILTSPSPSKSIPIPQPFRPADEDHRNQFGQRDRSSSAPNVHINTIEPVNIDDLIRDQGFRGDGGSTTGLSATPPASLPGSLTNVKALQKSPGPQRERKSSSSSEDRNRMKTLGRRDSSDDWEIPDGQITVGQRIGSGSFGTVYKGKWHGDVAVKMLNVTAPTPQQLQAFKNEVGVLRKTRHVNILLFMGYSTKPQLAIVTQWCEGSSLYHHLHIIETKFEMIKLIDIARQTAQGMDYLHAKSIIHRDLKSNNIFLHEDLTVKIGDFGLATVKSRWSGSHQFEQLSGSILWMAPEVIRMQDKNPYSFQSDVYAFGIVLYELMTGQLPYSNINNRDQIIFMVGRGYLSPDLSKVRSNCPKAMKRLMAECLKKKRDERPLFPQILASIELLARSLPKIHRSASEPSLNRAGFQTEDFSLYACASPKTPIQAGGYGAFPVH
Ends that are not written are not given here.
endpoint: IC50

// query Provide measured IC50 value, entry: THHVNILLFM [R/H-braftide]
// result 2.49 to 4.98 µM
